- tested.system: HLA-A*0201 (Homo sapiens, UniProt P04439, D140Y/D185E/D98H/E176V/E277Q/G131W/G231S/I119V/I121R/I166T/I218V/L300P/L318F/N151K/N90K/P208A/P217A/Q86G/Q94H/R138H/R169H/T345S)
- Type: binding
- measurement.context: NeoScreen: peptide 1 µM, HLA I 2-10 nM, 24 h incubation, urea 0, 2, 4 and 6 M, ELISA with w6/32; relative to reference peptide […] (100%)
Respond with 1 for Stability (%) values of 70% and above, 0 for values below.

   sequence_entry  cat
0       WLMWLIINL    0

Ask: Check if Stability (%) >= 70% (inclusive). Item: YLQPRTFLL
Reply: 1

Ask: Check if Stability (%) >= 70% (inclusive). Item: MIAQYTSAL
Reply: 0
